Where do the numbers come from? From ChEMBL document CHEMBL4261490.

experiment: Selectivity index, ratio of ED50 for human HepG2 cells to MIC for Escherichia coli K-12 W3110 ATCC 27325; type: toxicity; conditions: read-out: Selectivity Index
Square brackets hold non-standard residues; d marks the D form. Peptide text beside a SMILES is read from it. Gly(N-2-aminoethyl) = NCCNCC(=O)O; Nphe = O=C(O)CNCc1ccccc1
I'd be grateful if you could share measured selectivity ratio for these entries.
Keep the answer to the number alone.

**Query** Recorded selectivity ratio of CC(c1ccccc1)N(CC(=O)N(CCN)CC(=O)N(CC(=O)N(CC(=O)N(CCN)CC(=O)N(CC(=O)N(CC(N)=O)[C@@H](C)c1ccccc1)[C@@H](C)c1ccccc1)C(C)c1ccccc1)[C@@H](C)c1ccccc1)C(=O)CN(C(=O)CNCCN)C(C)c1ccccc1 (single isomer, unassigned) , please.
**Result** 4

**Query** What about this compound? C[C@H](c1ccccc1)N(CC(N)=O)C(=O)CN(C(=O)CN(CCCCN)C(=O)CN(C(=O)CN(C(=O)CN(CCCCN)C(=O)CN(C(=O)CN(C(=O)CNCCCCN)[C@H](C)c1ccccc1)[C@@H](C)c1ccccc1)[C@H](C)c1ccccc1)[C@@H](C)c1ccccc1)[C@H](C)c1ccccc1 (stereo in doubt)
**Result** 8

**Query** What about this compound? NCCNCC(=O)N(CC(=O)N(CC(=O)N(CCN)CC(=O)N(CC(=O)N(CC(=O)N(CCN)CC(=O)N(CC(=O)N(CC(N)=O)Cc1ccccc1)Cc1ccccc1)Cc1ccccc1)Cc1ccccc1)Cc1ccccc1)Cc1ccccc1 (H-[Gly(N-2-aminoethyl)][Nphe][Nphe][Gly(N-2-aminoethyl)][Nphe][Nphe][Gly(N-2-aminoethyl)][Nphe][Nphe]-NH2)
**Result** 1

---

assay: Cytotoxicity against mouse NIH/3T3 cells by MTS assay; format: cell-based, NIH3T3; details: read-out: ID50 (the source's name)
Square brackets hold non-standard residues; d marks the D form. Peptide text beside a SMILES is read from it. Nspe = C[C@H](NCC(=O)O)c1ccccc1; Nlys = NCCCCNCC(=O)O
measured.endpoint: CC50 (µM)
Give the value, in units of µM, as a plain number.

**Query** Recorded CC50 of C[C@@H](c1ccccc1)N(CC(N)=O)C(=O)CN(C(=O)CN(CCCCN)C(=O)CN(C(=O)CN(C(=O)CN(CCCCN)C(=O)CN(C(=O)CN(C(=O)CN(CCCCN)C(=O)CN(C(=O)CN(C(=O)CNCCCCN)[C@@H](C)c1ccccc1)[C@@H](C)c1ccccc1)[C@@H](C)c1ccccc1)[C@@H](C)c1ccccc1)[C@@H](C)c1ccccc1)[C@@H](C)c1ccccc1)[C@@H](C)c1ccccc1 (H-[Nlys][Nspe][Nspe][Nlys][Nspe][Nspe][Nlys][Nspe][Nspe][Nlys][Nspe][Nspe]-NH2) , please.
**Result** 5.1

---

test: Hemolytic activity against human erythrocytes measured after 1 hr; assay type: ADME, cell-based, Erythrocyte; conditions: read-out: HD50
Square brackets hold non-standard residues; d marks the D form. Peptide text beside a SMILES is read from it. Nspe = C[C@H](NCC(=O)O)c1ccccc1; Nlys = NCCCCNCC(=O)O
measured.endpoint: HC50 at 1 h (µM)
Give the value, in units of µM, as a plain number.

**Query** Recorded HC50 at 1 h of C[C@@H](c1ccccc1)N(CC(N)=O)C(=O)CN(C(=O)CN(CCCCN)C(=O)CN(C(=O)CN(C(=O)CN(CCCCN)C(=O)CN(C(=O)CN(C(=O)CN(CCCCN)C(=O)CN(C(=O)CN(C(=O)CNCCCCN)[C@@H](C)c1ccccc1)[C@@H](C)c1ccccc1)[C@@H](C)c1ccccc1)[C@@H](C)c1ccccc1)[C@@H](C)c1ccccc1)[C@@H](C)c1ccccc1)[C@@H](C)c1ccccc1 (H-[Nlys][Nspe][Nspe][Nlys][Nspe][Nspe][Nlys][Nspe][Nspe][Nlys][Nspe][Nspe]-NH2) , please.
**Result** 100
